// data source = ChEMBL document CHEMBL1687816

ASSAY_NOTES: Cmax in HIV-seronegative healthy volunteers at 400 mg, po administered as single dose by LC-MS/MS in presence of albuminium, magnesium and simethicone-containg antacid
Assay type: ADME, organism-based
Set-up: dose 400 mg, route oral
MEASUREMENT_CONDITIONS: human, in vivo
MEASURE_NAME: Cmax (ng/mL)
Numbers only, in ng/mL.

Challenge: Give me measured Cmax, please, for this compound: Cc1nnc(C(=O)NC(C)(C)c2nc(C(=O)NCc3ccc(F)cc3)c(O)c(=O)n2C)o1 [RALTEGRAVIR]
Response given: 1440

----------
ASSAY_NOTES: Tmax in HIV-seronegative healthy volunteers at 400 mg, po administered as single dose by LC-MS/MS
Type: ADME, organism-based
MEASUREMENT_CONDITIONS: human, in vivo
MEASURE_NAME: Tmax
Please don't drop the unit; write it after the number.

Challenge: Give me measured Tmax, please, for this compound: Cc1nnc(C(=O)NC(C)(C)c2nc(C(=O)NCc3ccc(F)cc3)c(O)c(=O)n2C)o1 [RALTEGRAVIR]
Response given: 3 h
